ASSAY_TEXT: Apparent permeability from basolateral to apical side of MDCK cells expressing mdr1
Format: ADME, cell-based, Canis lupus familiaris
MEASUREMENT_CONTEXT: dog
PROPERTY_NAME: Papp B→A (×10⁻⁶ cm/s)

Use the examples below as a reference point.
INSERT INTO assay_data (compound, property_name, numeric_readout) VALUES
  ('O=S(=O)(c1ccccc1)c1ccc2c(c1)CCNCC2', 'Papp B→A', 25),
  ('O=S(=O)(c1ccc2c(c1)CCNCC2)N1CC[C@@H](Oc2ccccc2Cl)C1', 'Papp B→A', 34),
  ('O=S(=O)(c1ccc2c(c1)CCNCC2)N1CCC(Oc2ccccc2Cl)CC1', 'Papp B→A', 26);

P = CN(CC1COc2ccccc21)S(=O)(=O)c1ccc2c(c1)CCNCC2 (stereo unspecified)
Q = O=S(=O)(c1ccc2c(c1)CCNCC2)N1CC(Oc2cccc(Cl)c2)C1
Query: Would you let me know which has the greater Papp B→A value, P or Q ? // output: label of the selected item
Reply: P

---

EXPERIMENTAL_TARGET: UniProt P41595
Sequence (P41595 whole entry): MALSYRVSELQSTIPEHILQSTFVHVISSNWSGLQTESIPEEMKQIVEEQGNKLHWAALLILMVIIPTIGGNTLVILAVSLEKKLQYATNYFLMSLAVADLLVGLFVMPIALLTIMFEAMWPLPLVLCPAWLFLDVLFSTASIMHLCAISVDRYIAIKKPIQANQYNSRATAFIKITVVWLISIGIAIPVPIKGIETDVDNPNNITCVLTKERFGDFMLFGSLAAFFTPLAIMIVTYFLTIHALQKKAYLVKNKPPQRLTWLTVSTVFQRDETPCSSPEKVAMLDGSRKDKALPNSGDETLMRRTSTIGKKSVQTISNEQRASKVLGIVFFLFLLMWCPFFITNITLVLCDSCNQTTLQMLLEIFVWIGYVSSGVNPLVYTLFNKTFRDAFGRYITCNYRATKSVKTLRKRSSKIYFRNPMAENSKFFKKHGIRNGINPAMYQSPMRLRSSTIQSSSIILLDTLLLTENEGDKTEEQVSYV
ASSAY_TEXT: Agonist activity at human recombinant 5HT2B receptor by cell-based system
Recorded EC50, one value per entry.
The reply should contain only the number, in nM.

INSERT INTO results (substance_smiles, experimental_target, scale_unit, numeric_readout) VALUES
  ('CN(C)S(=O)(=O)c1ccc2c(c1)CCNCC2', 'UniProt P41595', 'nM', 125);

Query: Would you mind telling me what EC50 value was observed for O=S(=O)(c1ccc(F)cc1)c1ccc2c(c1)CCNCC2 ?
Reply: 15

Query: Follow-up entry: O=S(=O)(c1ccc2c(c1)CCNCC2)N1CCCCC1
Reply: 34

Query: Could you do the same for O=S(=O)(c1ccccc1)c1ccc2c(c1)CCNCC2 , please?
Reply: 18

Query: Try this molecule too: O=S(=O)(c1cccc(F)c1)c1ccc2c(c1)CCNCC2
Reply: 33

Query: Next up: O=S(=O)(Nc1ccccc1)c1ccc2c(c1)CCNCC2
Reply: 69

Query: Same lookup for CN(CC1CC1)S(=O)(=O)c1ccc2c(c1)CCNCC2 , please.
Reply: 17

Query: Let us now turn to O=S(=O)(c1ccc2c(c1)CCNCC2)c1ccccc1F
Reply: 18

Query: Here is the next molecule: O=S(=O)(Nc1ccccc1Cl)c1ccc2c(c1)CCNCC2
Reply: 478

Query: Also check O=S(=O)(Nc1ccccc1F)c1ccc2c(c1)CCNCC2
Reply: 75

Query: Same question for CCCNS(=O)(=O)c1ccc2c(c1)CCNCC2 please.
Reply: 197

Query: // next record O=S(=O)(NCC1CC1)c1ccc2c(c1)CCNCC2
Reply: 103

---

EXPERIMENTAL_TARGET: 5-hydroxytryptamine receptor 2C (Homo sapiens)
Sequence (whole entry): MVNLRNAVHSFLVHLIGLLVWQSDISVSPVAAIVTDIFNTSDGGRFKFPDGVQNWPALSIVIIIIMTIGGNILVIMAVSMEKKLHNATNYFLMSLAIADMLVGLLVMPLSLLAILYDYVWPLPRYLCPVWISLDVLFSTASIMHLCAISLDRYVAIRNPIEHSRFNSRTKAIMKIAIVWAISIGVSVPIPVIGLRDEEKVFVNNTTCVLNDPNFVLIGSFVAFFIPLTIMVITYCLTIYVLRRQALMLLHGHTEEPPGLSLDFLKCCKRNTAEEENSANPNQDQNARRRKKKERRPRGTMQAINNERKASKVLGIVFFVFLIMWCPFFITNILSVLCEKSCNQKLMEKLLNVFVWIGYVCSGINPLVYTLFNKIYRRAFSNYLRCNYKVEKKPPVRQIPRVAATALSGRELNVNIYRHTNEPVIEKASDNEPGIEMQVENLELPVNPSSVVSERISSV
ASSAY_TEXT: Agonist activity at human recombinant 5HT2C receptor expressed in CHOK1 cells assessed as calcium mobilization at 10 uM by FLIPR assay relative to serotonin
Assay type: functional, cell-based
MEASUREMENT_CONTEXT: CHO-K1
PROPERTY_NAME: Emax (%)

I = CN(c1ccc2c(c1)CCNCC2)S(=O)(=O)Cc1ccc(F)cc1
II = O=S(=O)(Cc1ccc(F)cc1)Nc1ccc2c(c1)CCNCC2
Query: Compare I and II by numeric Emax and name the larger one. Identify your pick by its label.
Reply: I
(I: 20%, II: 10%)
